Test system: KB
Test method notes: Evaluated for cytotoxicity in the KB cell culture assay
Assay type: functional
Experimental context: Homo sapiens, read-out: ED50 (the source's name)
Measure: EC50 (µg/mL)
Answers are plain numbers, in µg/mL.

CC(C)=CCC1=C(O)C(=O)c2ccccc2C1=O : 4.4
Cc1cc2c(o1)C(=O)c1ccccc1C2=O : 0.3
CC(=O)c1cc2c(o1)C(=O)c1ccccc1C2=O : 1
O=C1C2=C(OC(O)CC2)C(=O)c2ccccc21 (stereo unspecified) : 20

For every item below, please supply its EC50.
1. O=C1C2=C(OCCC2)C(=O)c2ccccc21
2. C=C/C=C1/C(=O)C(=O)c2ccccc2C1=O

Result block:
1. 8
2. 0.4

----------
Test system: KB
Test method notes: Evaluated for cytotoxicity in the KB cell culture assay
Assay type: functional
Experimental context: Homo sapiens, read-out: ED50 (the source's name)
Measure: EC50
Answer with the number, then the unit.

CC(=O)OC1CC2=C(CO1)C(=O)c1ccccc1C2=O (configuration not stated) : 5 µg/mL
C/C=C/C1=C(OC(=O)c2ccccc2)C(=O)c2ccccc2C1=O : 5.1 µg/mL
C/C=C/C1=C(OC(C)=O)C(=O)c2ccccc2C1=O : 5.1 µg/mL
O=C1C2=C(OC(Cl)CC2)C(=O)c2ccccc21 (configuration not stated) : 9.3 µg/mL
Cc1cc2c(o1)-c1ccccc1C(=O)C2=O : 0.6 µg/mL

Lab note: each compound below needs its EC50 filled in.
1. CC(O)c1cc2c(o1)C(=O)c1ccccc1C2=O (configuration not stated)
2. C/C=C/C1=C(O)C(=O)c2ccccc2C1=O
3. O=C1C2=C(OCC=C2)C(=O)c2ccccc21

Result block:
1: 2 µg/mL; 2: 14 µg/mL; 3: 0.4 µg/mL

----------
System: KB
Test method notes: Evaluated for cytotoxicity in the KB cell culture assay
Format: functional
Experimental context: Homo sapiens, read-out: ED50 (the source's name)
Provide the reported EC50 of each item.
Give bare numbers, in µg/mL.

O=C1C2=C(CC(O)OC2)C(=O)c2ccccc21 (centres undefined) : 3
CC(=O)OC1CCC2=C(O1)C(=O)c1ccccc1C2=O (centres undefined) : 10
COC1CCC2=C(O1)C(=O)c1ccccc1C2=O (centres undefined) : 11

Now for another entry.
Query block: Fill in the blank: the reported EC50 of C/C=C/C1=C(OC(=O)CC)C(=O)c2ccccc2C1=O is ____.
Result block: 6.5
